TESTED ON: CXCR4 (Homo sapiens)
Sequence (P61073 whole entry): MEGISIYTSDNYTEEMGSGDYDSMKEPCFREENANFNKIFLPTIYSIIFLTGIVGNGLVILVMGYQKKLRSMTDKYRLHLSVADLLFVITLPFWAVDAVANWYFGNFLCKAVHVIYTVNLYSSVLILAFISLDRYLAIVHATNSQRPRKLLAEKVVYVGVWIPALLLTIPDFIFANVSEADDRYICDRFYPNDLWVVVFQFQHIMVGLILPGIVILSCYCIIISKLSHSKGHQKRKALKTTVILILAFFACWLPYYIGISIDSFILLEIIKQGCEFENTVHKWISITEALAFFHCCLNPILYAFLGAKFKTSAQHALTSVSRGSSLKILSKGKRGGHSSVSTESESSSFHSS
EXPERIMENT DESCRIPTION: Chemotaxis assay using SUP B-15 cells
Type: cell-based
Design: A similar procedure was followed for chemotaxis using SUP B-15 cells; endogenous in cells; host or cells: SUP B-15 cells
SETUP CONDITIONS: Table 19, i2 loop; SUPB-15 cells; conc 1.0 uM
Experimental: Chemotaxis assays were utilized to determine the effect of compound on the directed migration of cells in response to chemokine. […] Conversely, agonist activity was determined by adding compound in the bottom chamber only without endogenous chemokine. The effect of compound is quantified by several parameters, including the extent of maximum response, the shift of agonist dose-response curves, and the area under the curve. […]
* marks the point of attachment. Palmitoyl = CCCCCCCCCCCCCCCC(=O)*
Below, each entry is listed alongside its reported AUC (% of vehicle).
ASSAY READOUT: AUC (% of vehicle)

>>> reported_result("82 (Palmitoyl-HATNSQRPRKLLAEK-NH2; not fully specified) [Compound 82]")
"124.56 % of vehicle"
>>> reported_result("79 (Palmitoyl-HATNSQRPRKL-NH2; not fully specified) [Compound 79]")
"109.36 % of vehicle"
>>> reported_result("83 (Palmitoyl-HATNSQRPRKLLAEKV-NH2; not fully specified) [Compound 83]")
"126.36 % of vehicle"
>>> reported_result("78 (Palmitoyl-VHATNSQRPRKLLA-NH2; not fully specified) [Compound 78]")
"71.85 % of vehicle"
>>> reported_result("80 (Palmitoyl-HATNSQRPRKLLA-NH2; not fully specified) [Compound 80]")
"102.2 % of vehicle"
>>> reported_result("81 (Palmitoyl-HATNSQRPRKLLAE-NH2; not fully specified) [Compound 81]")
"79.85 % of vehicle"

* * *

TESTED ON: CXCR4 (Homo sapiens)
EXPERIMENT DESCRIPTION: Calcium flux assay in CCRF-CEM cells (SDF-1α activation of CXCR4; intrinsic agonist activity)
Assay type: cell-based
Design: a human T-cell ALL line that endogenously expresses CXCR4; endogenous in cells; host or cells: CCRF-CEM (human T-cell ALL line)
SETUP CONDITIONS: SDF-1α activation of CXCR4, Calcium-4 dye, read-out: IC50 (nM), CXCR4 i1 loop compound Calcium Flux Data
Square brackets hold non-standard residues; d marks the D form. Peptide text beside a SMILES is read from it. * marks the point of attachment. Palmitoyl = CCCCCCCCCCCCCCCC(=O)*
ASSAY READOUT: IC50

>>> reported_result("CCCCCCCCCCCCCCCC(=O)N[C@@H](CCSC)C(=O)NCC(=O)N[C@@H](Cc1ccc(O)cc1)C(=O)N[C@@H](CCC(N)=O)C(=O)N[C@H](CCCCN)C(=O)N[C@@H](CCCCN)C(=O)N[C@@H](CC(C)C)C(=O)N[C@@H](CCCNC(=N)N)C(=O)N[C@@H](CO)C(=O)N[C@@H](CCSC)C(=O)N[C@H](C(=O)N[C@@H](CC(=O)O)C(=O)N[C@@H](CCCCN)C(=O)N[C@@H](C)C(=O)N[C@@H](CCCNC(=N)N)C(=O)N[C@@H](CC(C)C)C(N)=O)[C@@H](C)O [Compound 151] (Palmitoyl-MGYQ[dK]KLRSMTDKARL-NH2)")
"> 10000 nM"
>>> reported_result("CCCCCCCCCCCCCCCC(=O)N[C@@H](CCSC)C(=O)NCC(=O)N[C@@H](Cc1ccc(O)cc1)C(=O)N[C@@H](CCC(N)=O)C(=O)N[C@H](CCCCN)C(=O)N[C@@H](CCCCN)C(=O)N[C@@H](CC(C)C)C(=O)N[C@@H](CCCNC(=N)N)C(=O)N[C@@H](CO)C(=O)N[C@@H](CCSC)C(=O)N[C@H](C(=O)N[C@@H](CC(=O)O)C(=O)N[C@@H](CCCCN)C(=O)N[C@@H](Cc1ccc(O)cc1)C(=O)N[C@@H](C)C(=O)N[C@@H](CC(C)C)C(N)=O)[C@@H](C)O [Compound 152] (Palmitoyl-MGYQ[dK]KLRSMTDKYAL-NH2)")
"> 10000 nM"
>>> reported_result("CCCCCCCCCCCCCCCC(=O)N[C@@H](CCSC)C(=O)NCC(=O)N[C@@H](Cc1ccc(O)cc1)C(=O)N[C@@H](CCC(N)=O)C(=O)N[C@@H](CCCCN)C(=O)N[C@@H](CCCCN)C(=O)N[C@H](CC(C)C)C(=O)N[C@@H](CCCNC(=N)N)C(=O)N[C@@H](CO)C(=O)N[C@@H](CCSC)C(=O)N[C@H](C(=O)N[C@@H](CC(=O)O)C(=O)N[C@@H](CCCCN)C(=O)N[C@@H](Cc1ccc(O)cc1)C(=O)N[C@@H](CCCNC(=N)N)C(=O)N[C@@H](CC(C)C)C(N)=O)[C@@H](C)O [Compound 170] (Palmitoyl-MGYQKK[dL]RSMTDKYRL-NH2)")
"72 nM"
>>> reported_result("CCCCCCCCCCCCCCCC(=O)N[C@@H](CCSC)C(=O)NCC(=O)N[C@@H](Cc1ccc(O)cc1)C(=O)N[C@@H](CCC(N)=O)C(=O)N[C@@H](CCCCN)C(=O)N[C@@H](CCCCN)C(=O)N[C@@H](CC(C)C)C(=O)N[C@@H](CCCNC(=N)N)C(=O)N[C@@H](CO)C(=O)N[C@@H](CCSC)C(=O)N[C@H](C(=O)N[C@@H](CC(=O)O)C(=O)N[C@@H](CCCCN)C(=O)N[C@H](Cc1ccc(O)cc1)C(=O)N[C@@H](CCCNC(=N)N)C(=O)N[C@@H](CC(C)C)C(N)=O)[C@@H](C)O [Compound 161] (Palmitoyl-MGYQKKLRSMTDK[dY]RL-NH2)")
"> 10000 nM"
